Values were extracted from ChEMBL document CHEMBL1146800.

# systemUnderTest: UniProtKB P00734
Please provide measured pKi for the entries that follow.
To interpret pKi, take it as minus log10 of a concentration measured in moles per litre.

Can you look up the measured pKi of COc1cccc(COc2ccc(C(C)NC(=O)CNC(=O)Nc3ccc(C(=N)N)cc3)cc2)c1 (stereo not given) for me? 5.64

Can you look up the measured pKi of CC(NC(=O)CNC(=O)Nc1ccc(C(=N)N)cc1)c1ccc(N2CCOCC2)c(C(F)(F)F)c1 (stereo not given) for me? 5.72

Can you look up the measured pKi of CC(NC(=O)CNC(=O)Nc1ccc(C(=N)N)cc1)c1ccc(C(=O)Nc2ccccc2)cc1 (stereo not given) for me? 4.92

Can you look up the measured pKi of CC(NC(=O)CNC(=O)Nc1ccc(C(=N)N)cc1)c1ccc(Oc2ccccc2)cc1 (stereo not given) for me? 5.04

Can you look up the measured pKi of CC(NC(=O)CNC(=O)Nc1ccc(C(=N)N)cc1)c1ccc(NC(=O)c2ccccc2)cc1 (stereo not given) for me? 4.83

Can you look up the measured pKi of CC(NC(=O)CNC(=O)Nc1ccc(C(=N)N)cc1)c1ccc(N2CCOCC2)c(Br)c1 (stereo not given) for me? 6.19

Can you look up the measured pKi of COC(=O)c1cc(C(C)NC(=O)CNC(=O)Nc2ccc(C(=N)N)cc2)ccc1OCc1ccccc1 (stereo not given) for me? 6.30

Can you look up the measured pKi of CC(NC(=O)CNC(=O)Nc1ccc(C(=N)N)cc1)c1ccc(NC(=O)c2cccc(Oc3ccccc3)c2)cc1 (stereo not given) for me? 4.48

Can you look up the measured pKi of CC(NC(=O)CNC(=O)Nc1ccc(C(=N)N)cc1)c1ccc(OCc2cccc(Cl)c2)cc1 (stereo not given) for me? 5.64
